# MEASUREMENT DESCRIPTION: gradient 5% acetonitrile 3 min, to 50% in 2 min, to 85% in 15 min, held 3 min, 100 µL/min
# REPORTED CONDITIONS: column: Zorbax Extend-C18 2.1 x 50 mm; eluents: water / acetonitrile, 0.1% formic acid
Catalogue of molecules with associated RP-LC retention time
Only the number, expressed in s, is required.

Cc1cccc(N2CCN([C@H]3CS(=O)(=O)C[C@@H]3S(=O)(=O)c3ccc(F)cc3)CC2)c1; 941
O=C(NCCCN1CCOC(c2ccccc2)C1)NC1CCCCC1 (stereo unspecified); 584
COc1ccc(NC(=O)N2CCN(c3nc4cccnc4s3)CC2)cc1; 690
CCCCN1C(=O)C(C)(C(=O)NCc2ccc(C)cc2)Oc2cccnc21 (stereo unspecified); 1040
CCN(Cc1ccccc1)c1ccc(-c2noc(CN3CCOCC3)n2)cn1; 826

Form field RP-LC retention time, entry `CCOc1ccccc1N1CCN(S(=O)(=O)c2nn(CC)cc2C(=O)NCCOC)CC1` : 910

Form field RP-LC retention time, entry `O=C(NCc1cccs1)c1ccc(Cn2ccnc2)cc1` : 809

Form field RP-LC retention time, entry `Cn1nc2c(c1NC(=O)c1ccc([N+](=O)[O-])s1)CCC2` : 698

Form field RP-LC retention time, entry `O=C(Cn1cnc2nc(N3CCC(C(=O)NC4CC4)CC3)sc2c1=O)NCc1ccccc1` : 637

Form field RP-LC retention time, entry `O=C(CN1CCSc2ccccc21)NCCCN1CCN(Cc2ccccc2)CC1` : 666

Form field RP-LC retention time, entry `O=C(NCc1ccccc1F)c1cccc(-c2ccc(N3CCCC3)nc2)c1` : 675
